Target: CCK-2R (Rattus norvegicus, UniProt P30553)
Construct: The CCK-2R expressing rat pancreatic tumor cells AR4-2J; host or cells: AR4-2J rat pancreatic tumor cells
Sequence (P30553 1-452): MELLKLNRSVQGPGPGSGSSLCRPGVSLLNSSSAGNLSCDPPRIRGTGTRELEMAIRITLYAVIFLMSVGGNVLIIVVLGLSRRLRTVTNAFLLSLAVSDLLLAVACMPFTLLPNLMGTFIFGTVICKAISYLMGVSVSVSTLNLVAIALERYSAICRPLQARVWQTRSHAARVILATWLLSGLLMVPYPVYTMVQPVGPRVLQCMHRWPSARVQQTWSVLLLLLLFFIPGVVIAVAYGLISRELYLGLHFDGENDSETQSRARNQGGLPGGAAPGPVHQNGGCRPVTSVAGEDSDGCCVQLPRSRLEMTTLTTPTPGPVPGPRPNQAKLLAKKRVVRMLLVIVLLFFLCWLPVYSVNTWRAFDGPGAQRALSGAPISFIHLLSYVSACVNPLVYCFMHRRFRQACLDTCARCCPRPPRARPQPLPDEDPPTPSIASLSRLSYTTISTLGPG
Assay: Determination of IC50: CCK-2R affinity on AR4-2J cells, competition with [^177Lu]Lu-DOTA-PP-F11N
Format: binding
Conditions: AR4-2J cells; ^natGa-labeled; read-out: IC50 [nM] (n = 3), ^natGa-labeled
Starred links: 1 amine or outer side, 2 acyl side, 3 side chain; linkers in the order of their positions; H or OH if unused. Non-standard residues stand in square brackets, D forms with d. Residues, ends and D or L forms follow the SMILES beside them. *: point of attachment. X5 = O=C(O)CN1CCN(CC(=O)O)CCN([C@@H](CCC(=O)*)C(=O)O)CCN(CC(=O)O)CC1; X2 = O=C(O)CN1CCN(CC(=O)O)CCN([C@H](CCC(=O)*)C(=O)O)CCN(CC(=O)O)CC1; DOTA = O=C(O)CN1CCN(CC(=O)O)CCN(CC(=O)*)CCN(CC(=O)O)CC1; NODAGA = O=C(O)CN1CCN(CC(=O)O)CCN(C(CCC(=O)*)C(=O)O)CC1; NOTA = O=C(O)CN1CCN(CC(=O)O)CCN(CC(=O)*)CC1; d(γGlu) = O=C(O)[C@@H](CCC(=O)[*:2])N[*:1]; 1Nal = N[C@@H](Cc1cccc2ccccc12)C(=O)O; NMeNle = CCCC[C@H](NC)C(=O)O; PEG4 = NCCOCCOCCOCCOCCC(=O)O
assay endpoint: IC50 (nM)
Numeric answer only, unit nM assumed.

INPUT: Lab note: need IC50 with CCK-2R (Rattus norvegicus, UniProt P30553) for entry CCCC[C@@H](C(=O)N[C@@H](CC(=O)O)C(=O)N[C@@H](Cc1cccc2ccccc12)C(N)=O)N(C)C(=O)[C@H](Cc1c[nH]c2ccccc12)NC(=O)CCOCCOCCOCCOCCNC(=O)CC[C@@H](NC(=O)CN1CCN(CC(=O)O)CCN(CC(=O)O)CC1)C(=O)O [NOTA-CCK-66] ({NOTA-d(γGlu)-PEG4}-W[NMeNle]D[1Nal]-NH2) , please look it up.
OUTPUT: 9.7

INPUT: Lab note: need IC50 with CCK-2R (Rattus norvegicus, UniProt P30553) for entry CCCC[C@@H](C(=O)N[C@@H](CC(=O)O)C(=O)N[C@@H](Cc1cccc2ccccc12)C(N)=O)N(C)C(=O)[C@H](Cc1c[nH]c2ccccc12)NC(=O)CCOCCOCCOCCOCCNC(=O)CC[C@@H](NC(=O)CC[C@@H](C(=O)O)N1CCN(CC(=O)O)CCN(CC(=O)O)CCN(CC(=O)O)CC1)C(=O)O [(S)-DOTAGA-CCK-66] ({X5-d(γGlu)-PEG4}-W[NMeNle]D[1Nal]-NH2) , please look it up.
OUTPUT: 17.9

INPUT: Lab note: need IC50 with CCK-2R (Rattus norvegicus, UniProt P30553) for entry CCCC[C@@H](C(=O)N[C@@H](CC(=O)O)C(=O)N[C@@H](Cc1cccc2ccccc12)C(N)=O)N(C)C(=O)[C@H](Cc1c[nH]c2ccccc12)NC(=O)CCOCCOCCOCCOCCNC(=O)CC[C@@H](NC(=O)CCC(C(=O)O)N1CCN(CC(=O)O)CCN(CC(=O)O)CC1)C(=O)O (stereo partly shown) [NODAGA-CCK-66] ({NODAGA-d(γGlu)-PEG4}-W[NMeNle]D[1Nal]-NH2) , please look it up.
OUTPUT: 4.9

INPUT: Lab note: need IC50 with CCK-2R (Rattus norvegicus, UniProt P30553) for entry CCCC[C@@H](C(=O)N[C@@H](CC(=O)O)C(=O)N[C@@H](Cc1cccc2ccccc12)C(N)=O)N(C)C(=O)[C@H](Cc1c[nH]c2ccccc12)NC(=O)CCOCCOCCOCCOCCNC(=O)CC[C@@H](NC(=O)CN1CCN(CC(=O)O)CCN(CC(=O)O)CCN(CC(=O)O)CC1)C(=O)O [DOTA-CCK-66] ({DOTA-d(γGlu)-PEG4}-W[NMeNle]D[1Nal]-NH2) , please look it up.
OUTPUT: 5

INPUT: Lab note: need IC50 with CCK-2R (Rattus norvegicus, UniProt P30553) for entry CCCC[C@@H](C(=O)N[C@@H](CC(=O)O)C(=O)N[C@@H](Cc1cccc2ccccc12)C(N)=O)N(C)C(=O)[C@H](Cc1c[nH]c2ccccc12)NC(=O)CCOCCOCCOCCOCCNC(=O)CC[C@@H](NC(=O)CC[C@H](C(=O)O)N1CCN(CC(=O)O)CCN(CC(=O)O)CCN(CC(=O)O)CC1)C(=O)O [(R)-DOTAGA-CCK-66] ({X2-d(γGlu)-PEG4}-W[NMeNle]D[1Nal]-NH2) , please look it up.
OUTPUT: 16

INPUT: Lab note: need IC50 with CCK-2R (Rattus norvegicus, UniProt P30553) for entry CCCC[C@@H](C(=O)N[C@@H](CC(=O)O)C(=O)N[C@@H](Cc1cccc2ccccc12)C(N)=O)N(C)C(=O)[C@H](Cc1c[nH]c2ccccc12)NC(=O)CNC(=O)[C@H](Cc1ccc(O)cc1)NC(=O)[C@H](C)NC(=O)[C@@H](CCC(=O)O)NC(=O)CN1CCN(CC(=O)O)CCN(CC(=O)O)CCN(CC(=O)O)CC1 [DOTA-MGS5, reference compound] , please look it up.
OUTPUT: 3.6

Now look at this one.
INPUT: Lab note: need IC50 with CCK-2R (Rattus norvegicus, UniProt P30553) for entry CCCC[C@@H](C(=O)N[C@@H](CC(=O)O)C(=O)N[C@@H](Cc1cccc2ccccc12)C(N)=O)N(C)C(=O)[C@H](Cc1c[nH]c2ccccc12)NC(=O)CCOCCOCCOCCOCCNC(=O)[C@@H](CCC(=O)O)NC(=O)CN1CCN(CC(=O)O)CCN(CC(=O)O)CCN(CC(=O)O)CC1 [DOTA-CCK-66.2] ({DOTA}-[dE][PEG4]W[NMeNle]D[1Nal]-NH2) , please look it up.
OUTPUT: 6

Entry source: patent EP4631959A2
